Species: Rattus norvegicus
protocol.details: Open TG-GATES - Regimen: Single
Type: toxicity, organism-based, Sprague-Dawley
Design: regimen Single, gender Male, age 6 weeks
test.parameters: in vivo, po, 0 mg/kg, 9 h, tissue Plasma, route gavage, dose level Control
Measured AST of individual entries
quantity: AST (IU/L)

CCOC(=O)CCC(=O)O[C@H]1[C@H](O[C@@H]2[C@@H](C)[C@H](O[C@H]3C[C@@](C)(OC)[C@@H](O)[C@H](C)O3)[C@@H](C)C(=O)O[C@H](CC)[C@@](C)(O)[C@H](O)[C@@H](C)C(=O)[C@H](C)C[C@@]2(C)O)O[C@H](C)C[C@@H]1N(C)C [ERYTHROMYCIN ETHYLSUCCINATE] :: 69.8
COC1=CC(=O)C[C@@H](C)[C@]12Oc1c(Cl)c(OC)cc(OC)c1C2=O :: 59.8
CC1=C(/C=C/C(C)=C/C=C/C(C)=C/CO)C(C)(C)CCC1 :: 72.2
NC(N)=Nc1nc(CSCCC(N)=NS(N)(=O)=O)cs1 :: 56.8

====

Species: Rattus norvegicus
protocol.details: Open TG-GATES - Regimen: Daily Repeat
Assay type: toxicity, organism-based, Sprague-Dawley
Design: regimen Daily Repeat, gender Male, age 6 weeks
test.parameters: in vivo, po, 1000 mg/kg, […], tissue Plasma, route gavage, dose level High, time 7 day
quantity: AST (IU/L)

COc1ccc2[nH]c([S+]([O-])Cc3ncc(C)c(OC)c3C)nc2c1 (stereo not given) :: 59.2
CCOC(=O)CCC(=O)O[C@H]1[C@H](O[C@@H]2[C@@H](C)[C@H](O[C@H]3C[C@@](C)(OC)[C@@H](O)[C@H](C)O3)[C@@H](C)C(=O)O[C@H](CC)[C@@](C)(O)[C@H](O)[C@@H](C)C(=O)[C@H](C)C[C@@]2(C)O)O[C@H](C)C[C@@H]1N(C)C [ERYTHROMYCIN ETHYLSUCCINATE] :: 71.8
CCOc1ccc(NC(=O)CC(C)O)cc1 (stereo not given) :: 79.4
COC1=CC(=O)C[C@@H](C)[C@]12Oc1c(Cl)c(OC)cc(OC)c1C2=O :: 56.8
CC(C)OC(=O)C(C)(C)Oc1ccc(C(=O)c2ccc(Cl)cc2)cc1 [FENOFIBRATE] :: 80.6

====

Species: Rattus norvegicus
protocol.details: Open TG-GATES - Regimen: Daily Repeat
Assay type: toxicity, organism-based, Sprague-Dawley
Parameters: regimen Daily Repeat, gender Male, age 6 weeks
test.parameters: in vivo, po, 0 mg/kg, 72 h, tissue Blood, route gavage, dose level Control, time 3 day
quantity: Plat (x10_4/uL)

CN(C)CCN(Cc1cccs1)c1ccccn1 :: 125.8
CCOc1ccc(NC(=O)CC(C)O)cc1 (stereo not given) [BUCETIN] :: 120.3
CN(C)CCCN1c2ccccc2CCc2ccccc21 [IMIPRAMINE] :: 111.4
CC1=C(/C=C/C(C)=C/C=C/C(C)=C/CO)C(C)(C)CCC1 [RETINOL] :: 116.8
COC1=CC(=O)C[C@@H](C)[C@]12Oc1c(Cl)c(OC)cc(OC)c1C2=O [GRISEOFULVIN] :: 133.8

====

Species: Rattus norvegicus
protocol.details: Open TG-GATES - Regimen: Single
Format: toxicity, organism-based, Sprague-Dawley
Design: regimen Single, gender Male, age 6 weeks
test.parameters: in vivo, po, 0 mg/kg, 9 h, tissue Plasma, route gavage, dose level Control
Measured ALP of individual entries
quantity: ALP (IU/L)

NNC(=O)c1ccncc1 :: 780
Cc1ccc(C)c(OCCCC(C)(C)C(=O)O)c1 :: 1255.2
CN(C)CCCN1c2ccccc2CCc2ccc(Cl)cc21 :: 1606

====

Organism: Rattus norvegicus
protocol.details: Open TG-GATES - Regimen: Daily Repeat
Assay type: toxicity, organism-based, Sprague-Dawley
Set-up: regimen Daily Repeat, gender Male, age 6 weeks
test.parameters: in vivo, po, 1000 mg/kg, […], tissue Plasma, route gavage, dose level High, time 7 day
Measured TP of individual entries
quantity: TP (g/dL)

COC1=CC(=O)C[C@@H](C)[C@]12Oc1c(Cl)c(OC)cc(OC)c1C2=O [GRISEOFULVIN] :: 5.9
CCOc1ccc(NC(=O)CC(C)O)cc1 (stereo not drawn) [BUCETIN] :: 6
CC(C)OC(=O)C(C)(C)Oc1ccc(C(=O)c2ccc(Cl)cc2)cc1 [FENOFIBRATE] :: 6.1

====

Species on record: Rattus norvegicus
protocol.details: Open TG-GATES - Regimen: Daily Repeat
Type: toxicity, organism-based, Sprague-Dawley
Parameters: regimen Daily Repeat, gender Male, age 6 weeks
test.parameters: in vivo, po, 0 mg/kg, […], tissue Plasma, route gavage, dose level Control, time 14 day
Measured AST of individual entries
quantity: AST (IU/L)

COc1ccc2[nH]c([S+]([O-])Cc3ncc(C)c(OC)c3C)nc2c1 (centres undefined) [OMEPRAZOLE] :: 61.4
CC1=C(/C=C/C(C)=C/C=C/C(C)=C/CO)C(C)(C)CCC1 [RETINOL] :: 64.6
NC(N)=Nc1nc(CSCCC(N)=NS(N)(=O)=O)cs1 [FAMOTIDINE] :: 62
CCOc1ccc(NC(=O)CC(C)O)cc1 (centres undefined) [BUCETIN] :: 60.8

====

Species: Rattus norvegicus
protocol.details: Open TG-GATES - Regimen: Daily Repeat
Format: toxicity, organism-based, Sprague-Dawley
Set-up: regimen Daily Repeat, gender Male, age 6 weeks
test.parameters: in vivo, po, 1000 mg/kg, 72 h, tissue Blood, route gavage, dose level High, time 3 day
Measured Plat of individual entries
quantity: Plat (x10_4/uL)

NC(N)=Nc1nc(CSCCC(N)=NS(N)(=O)=O)cs1 :: 126.7
COC1=CC(=O)C[C@@H](C)[C@]12Oc1c(Cl)c(OC)cc(OC)c1C2=O :: 122
CCOc1ccc(NC(=O)CC(C)O)cc1 (stereo not drawn) :: 123.8

====

Measured IP of individual entries
Organism: Rattus norvegicus
protocol.details: Open TG-GATES - Regimen: Single
Format: toxicity, organism-based, Sprague-Dawley
Parameters: regimen Single, gender Male, age 6 weeks
test.parameters: in vivo, po, 0 mg/kg, 3 h, tissue Plasma, route gavage, dose level Control
quantity: IP (mg/dL)

NC(N)=Nc1nc(CSCCC(N)=NS(N)(=O)=O)cs1 :: 9.1
CN(C)CCCN1c2ccccc2CCc2ccccc21 :: 8.9
NNC(=O)c1ccncc1 :: 8.8

====

Measured LIVER of individual entries
Species on record: Rattus norvegicus
protocol.details: Open TG-GATES - Regimen: Daily Repeat
Type: toxicity, organism-based, Sprague-Dawley
Design: regimen Daily Repeat, gender Male, age 6 weeks
test.parameters: in vivo, po, 0 mg/kg, 72 h, tissue Liver, route gavage, dose level Control, time 3 day
quantity: LIVER (g)

COC1=CC(=O)C[C@@H](C)[C@]12Oc1c(Cl)c(OC)cc(OC)c1C2=O :: 10.4
CCOC(=O)CCC(=O)O[C@H]1[C@H](O[C@@H]2[C@@H](C)[C@H](O[C@H]3C[C@@](C)(OC)[C@@H](O)[C@H](C)O3)[C@@H](C)C(=O)O[C@H](CC)[C@@](C)(O)[C@H](O)[C@@H](C)C(=O)[C@H](C)C[C@@]2(C)O)O[C@H](C)C[C@@H]1N(C)C [ERYTHROMYCIN ETHYLSUCCINATE] :: 10.7
CC1=C(/C=C/C(C)=C/C=C/C(C)=C/CO)C(C)(C)CCC1 :: 11
CCCNC(=O)NS(=O)(=O)c1ccc(Cl)cc1 [CHLORPROPAMIDE] :: 10.4

====

Species on record: Rattus norvegicus
protocol.details: Open TG-GATES - Regimen: Daily Repeat
Assay type: toxicity, organism-based, Sprague-Dawley
Set-up: regimen Daily Repeat, gender Male, age 6 weeks
test.parameters: in vivo, po, 0 mg/kg, […], tissue Plasma, route gavage, dose level Control, time 14 day
Measured ALP of individual entries
quantity: ALP (IU/L)

COC1=CC(=O)C[C@@H](C)[C@]12Oc1c(Cl)c(OC)cc(OC)c1C2=O [GRISEOFULVIN] :: 820.2
CC1=C(/C=C/C(C)=C/C=C/C(C)=C/CO)C(C)(C)CCC1 [RETINOL] :: 1383
CN(C)CCN(Cc1cccs1)c1ccccn1 :: 1834
CCOc1ccc(NC(=O)CC(C)O)cc1 (centres undefined) [BUCETIN] :: 1354.4

====

Measured KIDNEY_TOTAL of individual entries
Species: Rattus norvegicus
protocol.details: Open TG-GATES - Regimen: Single
Assay type: toxicity, organism-based, Sprague-Dawley
Parameters: regimen Single, gender Male, age 6 weeks
test.parameters: in vivo, po, 0 mg/kg, 24 h, tissue Kidney, route gavage, dose level Control
quantity: KIDNEY_TOTAL (g)

C[C@@H]1C[C@H]2[C@@H]3CCC4=CC(=O)C=C[C@]4(C)[C@@]3(F)[C@@H](O)C[C@]2(C)[C@@]1(O)C(=O)CO :: 0.7
CCCNC(=O)NS(=O)(=O)c1ccc(Cl)cc1 [CHLORPROPAMIDE] :: 1.9
CCOC(=O)CCC(=O)O[C@H]1[C@H](O[C@@H]2[C@@H](C)[C@H](O[C@H]3C[C@@](C)(OC)[C@@H](O)[C@H](C)O3)[C@@H](C)C(=O)O[C@H](CC)[C@@](C)(O)[C@H](O)[C@@H](C)C(=O)[C@H](C)C[C@@]2(C)O)O[C@H](C)C[C@@H]1N(C)C [ERYTHROMYCIN ETHYLSUCCINATE] :: 2
COc1cc2c(c(OC)c1OC)-c1ccc(OC)c(=O)cc1[C@@H](NC(C)=O)CC2 :: 2.2
Cc1ccc(C)c(OCCCC(C)(C)C(=O)O)c1 :: 1.9
CN(C)CCCN1c2ccccc2CCc2ccccc21 :: 1.8
NC(N)=Nc1nc(CSCCC(N)=NS(N)(=O)=O)cs1 :: 2.1
